Entries annotated with measured GI50
test system: HT29 colon; test: NCI tumour cell line growth inhibition, 48 h

{"columns": ["compound", "GI50"],
 "data": [
  ["CC[n+]1c(/C=C/c2ccc(N3CCCC3)cc2)cccc1/C=C/c1ccc(N2CCCC2)cc1", "115 nM"],
  ["Cc1cccc2c1NC(=O)[C@@H](NC(=O)[C@H](CCC(F)(F)F)[C@H](CCC(F)(F)F)C(N)=O)N=C2c1cccc(F)c1", "> 100000 nM"],
  ["CO[C@@H]1[C@H](N(C)C(=O)c2ccccc2)C[C@@H]2O[C@]1(C)n1c3ccccc3c3c4c(c5c6ccccc6n2c5c31)C(=O)NC4=O", "745 nM"],
  ["Nc1nc(N)c2cc(Sc3ccc(Cl)cc3)ccc2n1", "516 nM"],
  ["Oc1c(CCl)cc(Cl)cc1Cc1cc(Cl)cc(Cc2cc(Cl)cc(CCl)c2O)c1O", "5370 nM"],
  ["CC12OC(C(=O)C13CC3)C1C(=O)c3cccc(O)c3C(=O)C12 (centres undefined)", "10600 nM"],
  ["COc1ccc(-c2nc(Nc3ccc(F)cc3)nc(Nc3ccc4c(c3)nc(C)n4Cc3ccccc3)n2)cc1", "1760 nM"],
  ["CC(C)[C@]12O[C@H]1[C@@H]1O[C@]13[C@]1(O[C@H]1C[C@H]1C4=C(CC[C@@]13C)C(=O)OC4)[C@@H]2OC(=O)OC(C)(C)C", "< 12.1 nM"],
  ["COc1ccc2c(c1)OC(N)=C(C#N)C2c1ccc(F)c(F)c1 (centres undefined)", "318 nM"]
]}
